Test system: NCI-H226 lung
Test: NCI-60 one-dose screen, 48 h
Condition: 10 µM unless noted
This is part of a sample that, as a whole, favours compounds with a hit. Of some 83,000 tested, about 20% had one in any assay. The source made the active and inactive calls. The calls were made as follows: active = growth percent below 10; inactive = the rest.
Outcome field: choose from active, inactive

Compound: CC(=O)CC(c1cccs1)c1c(-c2ccccc2)[nH]c2ccccc12 (centres undefined)
Label: inactive

[in] In this assay, the call recorded for CC1Cc2ccccc2N1NC(=O)c1ccc(Cl)c(S(N)(=O)=O)c1 (centres undefined) was what?
[out] inactive

* * *

Test system: NCI-H322M lung
Test: NCI-60 one-dose screen, 48 h (100 = growth as untreated, 0 = no growth, -100 = all killed)
Condition: 10 µM unless noted
Compounds without any hit were thinned out: in the full panel of roughly 83,000, 20% have a hit.
Hi! Just check whether growth is below 70%. Below gives true, equal or above gives false.

// known answers, use as guide
Molecule: COc1ccc(CNC(=O)[C@H](O)[C@@H](N)Cc2ccccc2)cc1
Label: false
--
Molecule: COc1ccccc1/C=C1\Oc2cc(OCCN3CCC(Cc4ccccc4)CC3)ccc2C1=O
Label: false
--
Molecule: COc1ccc(-n2c(N)c(-c3nc4ccccc4[nH]3)cc(C#N)c2=O)cc1
Label: false
--
Molecule: O=C1COCCN1c1ccc(NCc2cn(C(=O)c3ccc(Cl)cc3)c3ccccc23)cc1
Label: false
--
Molecule: COc1cc(C(=O)c2cnc(-c3cccc4[nH]ccc34)[nH]2)cc(OC)c1OC
Label: true
--
Molecule: COc1cccc2c(=O)c3c(sc12)c(N1CCNCC1)nc1ccccc13
Label: false

[in] Here's an entry: C=C1C(=O)O[C@H]2[C@H]1CC/C(COC(=O)CCSSCCC(=O)OC/C1=C/CC[C@@]3(C)O[C@H]3[C@H]3OC(=O)C(=C)[C@@H]3CC1)=C\CC[C@@]1(C)O[C@@H]21 . Is its growth below 70%?
[out] false

[in] Here's an entry: C[C@]12CC[C@@H]3c4cc(OC(F)F)c(OS(N)(=O)=O)cc4CC[C@H]3[C@@H]1CC[C@@H]2O . Is its growth below 70%?
[out] true

[in] Here's an entry: CCOC(=O)c1[nH]c(C)c(C(=O)OCc2ccccc2C#N)c1C . Is its growth below 70%?
[out] false

[in] Here's an entry: O=C(O)C(c1ccccc1)N1C(=O)CSC1=S (centres undefined) . Is its growth below 70%?
[out] false

[in] Here's an entry: Cc1ccc(-c2nc(SCC(=O)Nc3nc(-c4ccc(Cl)cc4)cs3)[nH]c(=O)c2C#N)cc1 . Is its growth below 70%?
[out] false

* * *

The reader will find reported growth values listed item by item below.
Test system: HOP-92 NSCLC
Test: NCI-60 one-dose screen, 48 h (100 = growth as untreated, 0 = no growth, -100 = all killed)
Condition: 10 µM unless noted
Compounds without any hit were thinned out: in the full panel of roughly 83,000, 20% have a hit.
Hi! Could you send only the number? It should be in %, unit omitted.

Molecule: COc1ccc(/C=C/c2c(C(=O)/C=C/c3ccc(Cl)cc3)c(C)nc3ccccc23)cc1
growth (%): 70.2

[in] Please report the recorded growth for CCOC(=O)C1=C(N)Oc2c(sc3c(C)cccc23)C1c1ccc(Cl)cc1 (stereo not given) .
[out] 85

[in] Please report the recorded growth for CN1CCN(c2ccc(-c3cc4c(Nc5ccc(F)c(Cl)c5)ncnn4c3)cc2)CC1 .
[out] 76.8

[in] Please report the recorded growth for COc1ccc(-c2nn(C(=O)c3cc(OC)c(OC)c(OC)c3)c3cc(N)ccc23)cc1 .
[out] 50.1

[in] Please report the recorded growth for O=c1c2cc(F)ccc2sc2c(NCCN3CCOCC3)nc3ccccc3c12 .
[out] 44.6
